System: Alopecurus myosuroides
Assay: Post-emergence herbicidal action, ALOMY
Type: in vivo
Parameters: key: % herbicidal action vs untreated; 100 = plants died, 0 = like control
Settings: Dosage 80 g/ha
Property: herbicidal action ALOMY; scope: individual compounds

Worked cases, answers included:
- Compound: "CCCn1nnnc1NC(=O)c1ccc(C(F)(F)F)c(CSC)c1Cl"
  herbicidal action ALOMY: 80
- Compound: "CCCn1nnnc1NC(=O)c1ccc(C(F)(F)F)c(CS(C)(=O)=O)c1SC"
  herbicidal action ALOMY: 90
- Compound: "CCn1nnnc1NC(=O)c1ccc(C(F)F)c(CSC)c1C"
  herbicidal action ALOMY: 80
- Compound: "CCn1nnnc1NC(=O)c1ccc(C(F)F)c(CSC)c1Cl"
  herbicidal action ALOMY: 100
- Compound: "C=CCSCc1c(C(F)(F)F)ccc(C(=O)Nc2nnnn2CCC)c1Cl"
  herbicidal action ALOMY: 100
- Compound: "Cn1nnnc1NC(=O)c1ccc(C(F)(F)F)c(CS(=O)(=O)CC2CC2)c1Cl"
  herbicidal action ALOMY: 90
- Compound: "CCn1nnnc1NC(=O)c1ccc(C(F)(F)F)c(CS(=O)(=O)CC)c1Cl"
  herbicidal action ALOMY: 80
- Compound: "CCn1nnnc1NC(=O)c1ccc(C(F)F)c(C[S+](C)[O-])c1C (stereo not drawn)"
  herbicidal action ALOMY: 80

Pending compound:
Query string: GET /values?readout=herbicidal action ALOMY&system=Alopecurus myosuroides&item= CCCn1nnnc1NC(=O)c1ccc(I)c(C[S+](C)[O-])c1Cl (stereo not drawn)
Result string: 80

====

Tested on: Digitaria sanguinalis
Assay: Post-emergence herbicidal action, DIGSA
Assay type: in vivo
Set-up: key: % herbicidal action: 100 = plants died, 0 = like control
Settings: Dosage 80 g/ha
Experimental Endpoint: herbicidal action DIGSA
Please give only the number in your answer, with no unit.

Worked cases, answers included:
- Molecule: "CCn1nnnc1NC(=O)c1ccc(C(F)F)c(C[S+](C)[O-])c1SC (centres unmarked)"
  herbicidal action DIGSA: 90
- Molecule: "Cn1nnnc1NC(=O)c1ccc(I)c(CS(C)(=O)=O)c1Cl"
  herbicidal action DIGSA: 100
- Molecule: "CCn1nnnc1NC(=O)c1ccc(C(F)(F)F)c(C[S+]([O-])CC2CC2)c1Cl (centres unmarked)"
  herbicidal action DIGSA: 100
- Molecule: "CCCn1nnnc1NC(=O)c1ccc(C(F)F)c(C[S+](C)[O-])c1SC (centres unmarked)"
  herbicidal action DIGSA: 90
- Molecule: "COCC[S+]([O-])Cc1c(C(F)(F)F)ccc(C(=O)Nc2nnnn2C)c1Cl (racemic)"
  herbicidal action DIGSA: 100
- Molecule: "CCn1nnnc1NC(=O)c1ccc(C(F)F)c(CSC)c1SC"
  herbicidal action DIGSA: 100
- Molecule: "Cn1nnnc1NC(=O)c1ccc(C(F)(F)F)c(CS(C)(=O)=O)c1C(F)(F)C(F)(F)F"
  herbicidal action DIGSA: 90
- Molecule: "CCCn1nnnc1NC(=O)c1ccc(C(F)F)c(CS(C)(=O)=O)c1SC"
  herbicidal action DIGSA: 90

Query string: What value of herbicidal action DIGSA has been reported for the following molecule? CSc1c(C(=O)Nc2nnnn2C)ccc(C(F)F)c1C[S+](C)[O-] (centres unmarked)
Result string: 100

Query string: What value of herbicidal action DIGSA has been reported for the following molecule? `CCCn1nnnc1NC(=O)c1ccc(C(F)F)c(CSC)c1SC`
Result string: 100

Query string: What value of herbicidal action DIGSA has been reported for the following molecule? `Cn1nnnc1NC(=O)c1ccc(C(F)(F)F)c(CS(=O)(=O)CC2CC2)c1Cl`
Result string: 100

====

Tested on: Avena fatua
Assay: Post-emergence herbicidal action, AVEFA
Assay type: in vivo
Parameters: key: % herbicidal action vs untreated; 100 = plants died, 0 = like control
Settings: Dosage 80 g/ha
Experimental Endpoint: herbicidal action AVEFA

Worked cases, answers included:
- Compound: "CCn1nnnc1NC(=O)c1ccc(C(F)(F)F)c(C[S+](C)[O-])c1OC (centres unmarked)"
  Readout Value: 100
- Compound: "CCCn1nnnc1NC(=O)c1ccc(C(F)(F)F)c(CSC)c1Br"
  Readout Value: 100
- Compound: "CCn1nnnc1NC(=O)c1ccc(S(C)(=O)=O)c(CSC)c1Cl"
  Readout Value: 100

Query string: What value of herbicidal action AVEFA has been reported for the following compound? `CCCn1nnnc1NC(=O)c1ccc(C(F)(F)F)c(CS(C)(=O)=O)c1SC`
Result string: 90

Query string: What value of herbicidal action AVEFA has been reported for the following compound? `CCCn1nnnc1NC(=O)c1ccc(S(C)(=O)=O)c(CSC)c1C`
Result string: 80

====

System: Alopecurus myosuroides
Assay: Post-emergence herbicidal action, ALOMY
Assay type: in vivo
Parameters: key: % herbicidal action vs untreated; 100 = plants died, 0 = like control
Settings: Dosage 80 g/ha
Experimental Endpoint: herbicidal action ALOMY
Please give only the number in your answer, with no unit.

Worked cases, answers included:
- Compound: "CCn1nnnc1NC(=O)c1ccc(C(F)F)c(CS(=O)(=O)CC)c1Cl [Example 2-325]"
  herbicidal action ALOMY: 80
- Compound: "CCn1nnnc1NC(=O)c1ccc(C(F)(F)F)c(CS(=O)(=O)CC)c1C [Example 2-88]"
  herbicidal action ALOMY: 90
- Compound: "CCn1nnnc1NC(=O)c1ccc(Cl)c(CSC)c1Cl [Example 2-559]"
  herbicidal action ALOMY: 90
- Compound: "CCCn1nnnc1NC(=O)c1ccc(C(F)(F)F)c(CS(C)(=O)=O)c1OC [Example 3-136]"
  herbicidal action ALOMY: 90

Pending compound:
Query string: What value of herbicidal action ALOMY has been reported for the following compound? CCn1nnnc1NC(=O)c1ccc(C(F)F)c(CSC)c1SC [Example 2-170]
Result string: 80

====

Property: herbicidal action STEME; scope: individual compounds
System: Stellaria media
Assay: Post-emergence herbicidal action, STEME
Assay type: in vivo
Parameters: key: % herbicidal action vs untreated; 100 = plants died, 0 = like control
Settings: Dosage 80 g/ha
Please give only the number in your answer, with no unit.

Query string: What value of herbicidal action STEME has been reported for the following compound? `CCCn1nnnc1NC(=O)c1ccc(C(F)F)c(CS(C)(=O)=O)c1SC`
Result string: 100

Query string: What value of herbicidal action STEME has been reported for the following compound? `CCn1nnnc1NC(=O)c1ccc(S(C)(=O)=O)c(CSC)c1Cl`
Result string: 80

Query string: What value of herbicidal action STEME has been reported for the following compound? `CCCn1nnnc1NC(=O)c1ccc(C(F)(F)F)c(CSCC)c1C`
Result string: 100

Query string: What value of herbicidal action STEME has been reported for the following compound? `CSCc1c(C)ccc(C(=O)Nc2nnnn2C)c1Cl`
Result string: 100

Query string: What value of herbicidal action STEME has been reported for the following compound? `Cn1nnnc1NC(=O)c1ccc(C(F)(F)F)c(CS(C)(=O)=O)c1F`
Result string: 100

====

Property: herbicidal action ALOMY; scope: individual compounds
Tested on: Alopecurus myosuroides
Assay: Post-emergence herbicidal action, ALOMY
Type: in vivo
Parameters: key: % herbicidal action vs untreated; 100 = plants died, 0 = like control
Settings: Dosage 80 g/ha
Please give only the number in your answer, with no unit.

- Compound: "CCS(=O)(=O)Cc1c(C(F)(F)F)ccc(C(=O)Nc2nnnn2C)c1Cl [Example 1-301]"
  System Name: "Alopecurus myosuroides"
  Experimental Endpoint: "herbicidal action ALOMY"
  Readout Value: 80
- Compound: "Cn1nnnc1NC(=O)c1ccc(C(F)(F)F)c(CSCC(F)(F)F)c1Cl [Example 1-311]"
  System Name: "Alopecurus myosuroides"
  Experimental Endpoint: "herbicidal action ALOMY"
  Readout Value: 100
- Compound: "CCn1nnnc1NC(=O)c1ccc(C(F)(F)F)c(CSCC(F)(F)F)c1Cl [Example 2-311]"
  System Name: "Alopecurus myosuroides"
  Experimental Endpoint: "herbicidal action ALOMY"
  Readout Value: 90
- Compound: "CSCc1c(C)ccc(C(=O)Nc2nnnn2C)c1Cl [Example 1-287]"
  System Name: "Alopecurus myosuroides"
  Experimental Endpoint: "herbicidal action ALOMY"
  Readout Value: 90
- Compound: "CCCn1nnnc1NC(=O)c1ccc(C(F)(F)F)c(CSCC)c1Cl [Example 3-299]"
  System Name: "Alopecurus myosuroides"
  Experimental Endpoint: "herbicidal action ALOMY"
  Readout Value: 80

Query string: GET /values?readout=herbicidal action ALOMY&system=Alopecurus myosuroides&item= CCCn1nnnc1NC(=O)c1ccc(C(F)F)c(CSCC)c1Cl [Example 3-323]
Result string: 80

Query string: GET /values?readout=herbicidal action ALOMY&system=Alopecurus myosuroides&item= Cn1nnnc1NC(=O)c1ccc(I)c(CS(C)(=O)=O)c1Cl [Example 1-364]
Result string: 90

Query string: GET /values?readout=herbicidal action ALOMY&system=Alopecurus myosuroides&item= CCn1nnnc1NC(=O)c1ccc(C)c(C[S+](C)[O-])c1Cl (stereo not shown) [Example 2-288]
Result string: 80

Query string: GET /values?readout=herbicidal action ALOMY&system=Alopecurus myosuroides&item= CSc1c(C(=O)Nc2nnnn2C)ccc(C(F)F)c1C[S+](C)[O-] (stereo not shown) [Example 1-171]
Result string: 80

Query string: GET /values?readout=herbicidal action ALOMY&system=Alopecurus myosuroides&item= CCSCc1c(C(F)F)ccc(C(=O)Nc2nnnn2C)c1SCC [Example 1-191]
Result string: 80

Query string: GET /values?readout=herbicidal action ALOMY&system=Alopecurus myosuroides&item= Cc1ccc(C(=O)Nc2nnnn2C)c(Cl)c1CS(C)(=O)=O [Example 1-289]
Result string: 80

Query string: GET /values?readout=herbicidal action ALOMY&system=Alopecurus myosuroides&item= CSCc1c(C(F)(F)F)ccc(C(=O)Nc2nnnn2C)c1SC [Example 1-161]
Result string: 90

Query string: GET /values?readout=herbicidal action ALOMY&system=Alopecurus myosuroides&item= CCn1nnnc1NC(=O)c1ccc(C(F)(F)F)c(CS(C)(=O)=O)c1SC [Example 2-163]
Result string: 90

Query string: GET /values?readout=herbicidal action ALOMY&system=Alopecurus myosuroides&item= CCn1nnnc1NC(=O)c1ccc(C(F)(F)F)c(CS(C)(=O)=O)c1Br [Example 2-382]
Result string: 80
